- System: SW-620
- assay: NCI tumour cell line growth inhibition, 48 h
The source made the active and inactive calls. No stated cut-off is given here; in the data, active = GI50 up to about 1.1 µM and inactive = higher. Where a SMILES comes first, the peptide text is derived from it. The star is where a group is joined. Fmoc = O=C(OCC1c2ccccc2-c2ccccc21)*; OBn = c1ccc(CO*)cc1; tBu = CC(C)(C)*
experimental_readout: GI50

INSERT INTO results (molecule, experimental_readout, reading) VALUES
  ('N#Cc1nc(/C=C/c2ccccc2)oc1N', 'GI50', '> 100 µM (inactive)'),
  ('COc1ccc(-c2onc(-c3ccc([N+](=O)[O-])cc3)c2C2=NCCN2)cc1', 'GI50', '> 100 µM (inactive)'),
  ('c1ccc(Cc2cc(-c3ccccc3)[nH]n2)cc1', 'GI50', '14.6 µM (inactive)'),
  ('O=C(CC12C3C4C1C1C2C3C41CC(=O)NO)NO (stereo not drawn)', 'GI50', '38.9 µM (inactive)'),
  ('COC1=CC(=O)C2C(C1=O)[C@@H]1c3ccccc3OC[C@H]21 (stereo partly drawn)', 'GI50', '> 100 µM (inactive)'),
  ('C=CC1=CC(C)C[C@]1(O)C(=O)OC (stereo partly drawn)', 'GI50', '38.5 µM (inactive)'),
  ('N#Cc1ccc(NC(=O)C(CC(=O)OCc2ccccc2)NC(=O)OCc2ccccc2)cc1 (stereo not drawn)', 'GI50', '> 10 µM (inactive)'),
  ('COc1ccc(/C=c2\c(=O)[nH]c3nc4ccccc4c(=O)n23)cc1', 'GI50', '36.1 µM (inactive)'),
  ('COc1ccc2c(C(=O)O)cc3ccccc3c2c1OC', 'GI50', '19.4 µM (inactive)'),
  ('CSc1nc(=O)cnn1C', 'GI50', '> 100 µM (inactive)'),
  ('CC(OC(C)(C)C)C(NC(=O)OCC1c2ccccc2-c2ccccc21)C(=O)NC(Cc1ccccc1)C(=O)OCc1ccccc1 (stereo not drawn) (Fmoc-Thr(tBu)-Phe-OBn; configuration not given here)', 'GI50', '> 100 µM (inactive)'),
  ('Nc1c(C(=O)c2ccc(Cl)c(Cl)c2)[nH]c(NCc2ccccc2)c1C(=S)Nc1ccccc1', 'GI50', '3.22 µM (inactive)'),
  ('COC(=O)C1(Cc2ccccc2)Cc2cc3c(cc2C1O)CCC3 (stereo not drawn)', 'GI50', '13.2 µM (inactive)'),
  ('C=CC(c1ccccc1)[C@@]1(OC(C)=O)C(=O)C(=O)OC1C1COC(C)(C)O1 (stereo partly drawn)', 'GI50', '8.13 µM (inactive)'),
  ('O=C1CCN2C(=O)CCN12', 'GI50', '> 100 µM (inactive)'),
  ('O=[N+]([O-])C(=C/c1ccccc1)/C(=C\c1ccccc1)[N+](=O)[O-]', 'GI50', '13.5 µM (inactive)'),
  ('O=C1NCC2(CCN(Cc3ccccc3)CC2)N1', 'GI50', '> 100 µM (inactive)'),
  ('Cc1nc(-c2cc3ccccc3oc2=O)cs1', 'GI50', '> 100 µM (inactive)'),
  ('CSc1nc(NC2OCC(OC(C)=O)C(OC(C)=O)C2OC(C)=O)c2c(OC(C)=O)c(C)c(=O)oc2n1 (stereo not drawn)', 'GI50', '> 100 µM (inactive)'),
  ('CC(C)CNCCc1ccccn1', 'GI50', '> 100 µM (inactive)'),
  ('C=C(C(=O)C(=O)Oc1ccc(Cl)cc1)C(=O)c1ccc(C)cc1', 'GI50', '19.3 µM (inactive)'),
  ('CCc1cc2c(c3[nH]ccc13)[C@@H](C)C[C@H]2C', 'GI50', '19.8 µM (inactive)'),
  ('O=C1/C(=C/c2cccs2)NC(=S)N1CN1CCCCC1', 'GI50', '30.3 µM (inactive)');
